Data provenance is the supplement of paper PMC7287046.

Test system: SNB75
test details: HSA synergy score (Combenefit); higher = more synergy
stated conditions: exposure time: 72 h
measured metric: HSA synergy score
A bare number is all that is needed in reply.

Qu. Bench note: what HSA synergy score did CCC(=O)N1CCN(c2ccc(-n3c(=O)ccc4cnc5ccc(-c6cnc7ccccc7c6)cc5c43)cc2C(F)(F)F)CC1 [Torin1] + CCCCCCCCCCCC1=C(O)C(=O)C=C(O)C1=O [Embelin] show?
Ans. 7.31

Qu. Given the molecule CO[C@H]1C[C@@H]2CC[C@@H](C)[C@@](O)(O2)C(=O)C(=O)N2CCCC[C@H]2C(=O)O[C@H]([C@H](C)C[C@@H]2CC[C@@H](O)[C@H](OC)C2)CC(=O)[C@H](C)/C=C(\C)[C@@H](O)[C@@H](OC)C(=O)[C@H](C)C[C@H](C)/C=C/C=C/C=C/1C [Rapamycin] + CCOc1nc(NC(=O)Cc2cc(OC)ccc2OC)cc(N)c1C#N [JNK inhibitor VIII] , what is its reported HSA synergy score?
Ans. 19.9

Qu. Can you share its HSA synergy score? I mean this molecule: C=CCc1cccc(/C=N/NC(=O)CN2CCN(Cc3ccccc3)CC2)c1O [PAC-1] + CCOc1nc(NC(=O)Cc2cc(OC)ccc2OC)cc(N)c1C#N [JNK inhibitor VIII]
Ans. 6.97

Qu. Any idea what its HSA synergy score is? The molecule is CCC(=O)N1CCN(c2ccc(-n3c(=O)ccc4cnc5ccc(-c6cnc7ccccc7c6)cc5c43)cc2C(F)(F)F)CC1 [Torin1] + C#Cc1cccc(Nc2ncnc3cc(OCCOC)c(OCCOC)cc23)c1 [Erlotinib]
Ans. 18.2

Qu. Return reported HSA synergy score; argument: C[C@@H](Oc1cc(-c2cnn(C3CCNCC3)c2)cnc1N)c1c(Cl)ccc(F)c1Cl [Crizotinib] + C=CCc1cccc(/C=N/NC(=O)CN2CCN(Cc3ccccc3)CC2)c1O [PAC-1]
Ans. 5.78

Qu. // returns reported HSA synergy score for input C[C@@H](Oc1cc(-c2cnn(C3CCNCC3)c2)cnc1N)c1c(Cl)ccc(F)c1Cl [Crizotinib] + Cc1cc([C@@H](C)Nc2ccccc2C(=O)O)c2nc(N3CCOCC3)cc(=O)n2c1 [AZD6482]
Ans. 9.49

Qu. Reported HSA synergy score for CC(=O)O[C@@]12CO[C@@H]1C[C@H](O)[C@@]1(C)C(=O)[C@H](O)C3=C(C)[C@@H](OC(=O)[C@H](O)[C@@H](NC(=O)OC(C)(C)C)c4ccccc4)C[C@@](O)([C@@H](OC(=O)c4ccccc4)[C@H]21)C3(C)C [Docetaxel] + O=c1[nH]c2ccccc2n1C1CCN(Cc2ccc(-c3[nH]c4cc5ncnc5cc4nc3-c3ccccc3)cc2)CC1 [Akt inhibitor VIII] : what is it?
Ans. 6.81

Qu. HSA synergy score lookup needed for C[C@@H](Oc1cc(-c2cnn(C3CCNCC3)c2)cnc1N)c1c(Cl)ccc(F)c1Cl [Crizotinib] + CCOc1nc(NC(=O)Cc2cc(OC)ccc2OC)cc(N)c1C#N [JNK inhibitor VIII] , thanks.
Ans. 10.4

Qu. Look up HSA synergy score: CO[C@H]1C[C@@H]2CC[C@@H](C)[C@@](O)(O2)C(=O)C(=O)N2CCCC[C@H]2C(=O)O[C@H]([C@H](C)C[C@@H]2CC[C@@H](O)[C@H](OC)C2)CC(=O)[C@H](C)/C=C(\C)[C@@H](O)[C@@H](OC)C(=O)[C@H](C)C[C@H](C)/C=C/C=C/C=C/1C [Rapamycin] + C[C@@H](Oc1cc(-c2cnn(C3CCNCC3)c2)cnc1N)c1c(Cl)ccc(F)c1Cl [Crizotinib]
Ans. 10.4

Qu. Would you mind telling me what HSA synergy score value was observed for CCC(=O)N1CCN(c2ccc(-n3c(=O)ccc4cnc5ccc(-c6cnc7ccccc7c6)cc5c43)cc2C(F)(F)F)CC1 [Torin1] + O=c1[nH]c2ccccc2n1C1CCN(Cc2ccc(-c3[nH]c4cc5ncnc5cc4nc3-c3ccccc3)cc2)CC1 [Akt inhibitor VIII] ?
Ans. 3.56

Qu. Looking for the measured HSA synergy score of CC(=O)O[C@@]12CO[C@@H]1C[C@H](O)[C@@]1(C)C(=O)[C@H](O)C3=C(C)[C@@H](OC(=O)[C@H](O)[C@@H](NC(=O)OC(C)(C)C)c4ccccc4)C[C@@](O)([C@@H](OC(=O)c4ccccc4)[C@H]21)C3(C)C [Docetaxel] + CCCCCCCCCCCC1=C(O)C(=O)C=C(O)C1=O [Embelin] , can you help?
Ans. 3.76

Qu. For the molecule C#Cc1cccc(Nc2ncnc3cc(OCCOC)c(OCCOC)cc23)c1 [Erlotinib] + CCCCCCCCCCCC1=C(O)C(=O)C=C(O)C1=O [Embelin] , what HSA synergy score is on record?
Ans. 6.85

Qu. Value lookup for HSA synergy score; key = O=c1[nH]c2ccccc2n1C1CCN(Cc2ccc(-c3[nH]c4cc5ncnc5cc4nc3-c3ccccc3)cc2)CC1 [Akt inhibitor VIII] + N#CC(c1ccnc(NCCc2cccnc2)n1)c1nc2ccccc2s1
Ans. 5.96

Qu. For the molecule CC(=O)O[C@@]12CO[C@@H]1C[C@H](O)[C@@]1(C)C(=O)[C@H](O)C3=C(C)[C@@H](OC(=O)[C@H](O)[C@@H](NC(=O)OC(C)(C)C)c4ccccc4)C[C@@](O)([C@@H](OC(=O)c4ccccc4)[C@H]21)C3(C)C [Docetaxel] + C#Cc1cccc(Nc2ncnc3cc(OCCOC)c(OCCOC)cc23)c1 [Erlotinib] , what HSA synergy score is on record?
Ans. 5.52

Qu. Recorded HSA synergy score for Cc1cc([C@@H](C)Nc2ccccc2C(=O)O)c2nc(N3CCOCC3)cc(=O)n2c1 [AZD6482] + CCOc1nc(NC(=O)Cc2cc(OC)ccc2OC)cc(N)c1C#N , please?
Ans. 6.97

Qu. Could you share which HSA synergy score value was measured for C=CCc1cccc(/C=N/NC(=O)CN2CCN(Cc3ccccc3)CC2)c1O [PAC-1] + Cc1cc([C@@H](C)Nc2ccccc2C(=O)O)c2nc(N3CCOCC3)cc(=O)n2c1 [AZD6482] ?
Ans. 21.4
